Reference source: patent US20110301162A1

Recorded IC50 values for a group of compounds are listed next.
Biological target: AuroraA-TPX2 (Homo sapiens, UniProt O14965)
Construct: 20 μL of AuroraA-TPX2 KD GST; GST
Sequence (O14965 133-383 limits assumed): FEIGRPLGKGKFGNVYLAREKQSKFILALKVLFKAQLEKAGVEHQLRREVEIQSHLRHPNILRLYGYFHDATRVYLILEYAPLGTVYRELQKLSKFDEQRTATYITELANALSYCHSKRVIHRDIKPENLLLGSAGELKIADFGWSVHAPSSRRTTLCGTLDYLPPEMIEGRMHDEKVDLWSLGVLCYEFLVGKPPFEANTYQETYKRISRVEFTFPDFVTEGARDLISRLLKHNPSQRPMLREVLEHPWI
Sequence (Q9ULW0 1-43 partner limits assumed): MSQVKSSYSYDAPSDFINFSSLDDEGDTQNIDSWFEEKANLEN
Assay: AuroraA-TPX2 Homogeneous Time Resolved Fluorescent (HTRF) kinase assay
Assay type: biochemical
Conditions: average; ATP about 1 μM; read-out: AurA_IC50_IP (uM Avg)

What does the record list as IC50 for `O=C(Nc1cc(Oc2ccc(Nc3nnc(-c4ccccc4)c4ccccc34)cc2F)ccn1)N1CCOCC1` ?
0.1 to 0.5 µM

Then there is this compound:
What does the record list as IC50 for `Cc1ccc(-c2nnc(Nc3ccc(Sc4ccnc(-c5cc6ccccc6[nH]5)n4)cc3)c3ccccc23)cn1` ?
0.1 to 0.5 µM

---

Target: AuroraB (Homo sapiens, UniProt Q96GD4)
Construct: 20 μL of AuroraB FL His; His
Sequence (Q96GD4 whole entry): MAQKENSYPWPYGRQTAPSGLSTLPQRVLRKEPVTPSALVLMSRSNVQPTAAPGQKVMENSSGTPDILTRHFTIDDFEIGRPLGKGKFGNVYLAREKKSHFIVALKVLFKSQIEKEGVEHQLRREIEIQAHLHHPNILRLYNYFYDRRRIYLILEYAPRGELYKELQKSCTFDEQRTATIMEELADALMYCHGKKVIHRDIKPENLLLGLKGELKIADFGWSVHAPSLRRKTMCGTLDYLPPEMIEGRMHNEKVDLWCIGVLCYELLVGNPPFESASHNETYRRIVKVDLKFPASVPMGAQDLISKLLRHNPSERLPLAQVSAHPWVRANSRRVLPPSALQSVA
Test: AuroraB Homogeneous Time Resolved Fluorescent (HTRF) kinase assay
Type: biochemical
Conditions: average; ATP 23 μM; read-out: AurB_IC50_IP (uM Avg)
Recorded IC50 values for a group of molecules are listed next.

Here's what some known entries look like.
What does the record list as IC50 for `CNc1cc(Sc2ccc(Nc3nnc(-c4ccc(Cl)cc4)c4ccccc34)cc2)ccn1` ?
< 0.1 µM

What does the record list as IC50 for `CSc1nccc(Oc2ccc(Nc3nnc(-c4ccccc4)c4ccccc34)cc2)n1` ?
1 to 5 µM

What does the record list as IC50 for `OCCNc1nccc(Sc2ccc(Nc3nnc(-c4ccc(Cl)cc4)c4ccccc34)cc2)n1` ?
< 0.1 µM

What does the record list as IC50 for `Clc1ccc(-c2nnc(Nc3ccc(Oc4ccnc(/C=C/c5ccccc5)n4)cc3)c3ccccc23)cc1` ?
< 0.1 µM

What does the record list as IC50 for `Clc1ccc(-c2nnc(Nc3ccc(Sc4ccnc(/C=C/c5ccccc5)n4)cc3)c3ccccc23)cc1` ?
< 0.1 µM

Continuing:
What does the record list as IC50 for `CNCCNc1nccc(Sc2ccc(Nc3nnc(-c4ccc(Cl)cc4)c4ccccc34)cc2)n1` ?
0.5 to 1 µM

What does the record list as IC50 for `CNC(=O)c1cc(Oc2ccc(Nc3nnc(-c4ccc(Cl)cc4)c4ccccc34)cc2)ccn1` ?
0.1 to 0.5 µM

What does the record list as IC50 for `Cc1ccc(-c2nnc(Nc3ccc(Sc4ccnc(-c5cc6ccccc6[nH]5)n4)cc3)c3ccccc23)cc1N` ?
< 0.1 µM

---

Target: AuroraB (Homo sapiens, UniProt Q96GD4)
Construct: 20 μL of AuroraB FL His; His
Assay: AuroraB Homogeneous Time Resolved Fluorescent (HTRF) kinase assay
Format: biochemical
Details: average; ATP 23 μM; read-out: AurB_IC50_IP (uM Avg)
property.label: IC50

Here's what some known entries look like.
What does the record list as IC50 for `O=C(Nc1cc(Oc2ccc(Nc3nnc(-c4ccccc4)c4ccccc34)cc2F)ccn1)N1CCOCC1` ?
< 0.1 µM

What does the record list as IC50 for `CS(=O)(=O)CCNc1cc(Oc2ccc(Nc3nnc(-c4ccc(Cl)cc4)c4ccccc34)cc2)ccn1` ?
0.1 to 0.5 µM

What does the record list as IC50 for `c1ccc(-c2nnc(Nc3ccc(Sc4ccnc(-c5cc6ccccc6[nH]5)n4)cc3)c3ccccc23)cc1` ?
0.1 to 0.5 µM

What does the record list as IC50 for `Nc1cc(Sc2ccc(Nc3nnc(-c4ccc(Cl)cc4)c4ccccc34)cc2)ccn1` ?
< 0.1 µM

Continuing:
What does the record list as IC50 for `CNCCNc1nccc(Sc2ccc(Nc3nnc(-c4ccccc4)c4ccccc34)cc2)n1` ?
1 to 5 µM

What does the record list as IC50 for `Cc1csc(-c2nnc(Nc3ccc(Sc4ccnc(-c5cc6ccccc6[nH]5)n4)cc3)c3ccccc23)c1` ?
< 0.1 µM

What does the record list as IC50 for `CNC(=O)c1cc(Sc2ccc(Nc3nnc(-c4ccc(Cl)cc4)c4ccccc34)cc2)ccn1` ?
0.1 to 0.5 µM

What does the record list as IC50 for `OCCNc1nccc(Sc2ccc(Nc3nnc(-c4ccccc4)c4ccccc34)cc2)n1` ?
< 0.1 µM
